The origin of these recorded values is PubChem BioAssay AID1159580.

Exercise: state measured normalized growth for each of the molecules provided.
Assay: chemical genetic growth profiling, strain panel (AID 1159580);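 also: tested at 20 µM; growth read once vehicle control cultures reached saturation at 30 °C; 1 = growth at the plate median or of vehicle wells; lower values mean less growth of the strain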
Settings: S. cerevisiae deletion strains, growth OD, locus YAL030W, strain snc1, active compounds read low
The campaign covered roughly 5,500 compounds. About 2,000 (36%) were called active. Roughly 18% stayed inconclusive and do not appear here. The list shows a part of the results.
One number for each entry.

CC(=O)Oc1cccc(O)c1 = 1.01
CC(=O)Oc1ccc(C(c2ccc(OC(C)=O)cc2)c2ccccn2)cc1 = 1.01
CC(C)CCCC(C)C1CCC2C3C[C@@H](O)[C@@]4(O)C[C@@H](O)CC[C@]4(C)C3CC[C@]12C (stereo not given in full) = 0.988
CC(C)CCCC(C)[C@H]1CCC2C3CC=C4C[C@@H](O)CC[C@]4(C)C3CC[C@@]21C (stereo not given in full) = 0.979
Cc1cc(=O)oc2cc(O)c(O)cc12 = 1

Hey, can you go through the list below and give me normalized growth for every item?
1. CC(C)CCCC(C)[C@H]1CCC2C3CC=C4CC(=O)CC[C@]4(C)C3CC[C@@]21C (stereo not given in full)
2. COC(=O)c1c(OC)cc2c(c1C)Oc1c(Cl)c(O)c(Cl)c(C)c1C(=O)O2
3. CCOC(=O)[C@H](CCc1ccccc1)N[C@@H](C)C(=O)N1CCC[C@H]1C(=O)O
4. Oc1c(Cl)cc(Cl)cc1Sc1cc(Cl)cc(Cl)c1O
5. COC(=O)c1c(C)c2c(c(C)c1O)OC(=O)c1c(C)c(Cl)c(O)c(Cl)c1O2

1. 0.989
2. 0.977
3. 0.992
4. 0.0557
5. 0.969

====

Provide the reported normalized growth of each item.
Assay: chemical genetic growth profiling, strain panel (AID 1159580)
Conditions: S. cerevisiae deletion strains, growth OD, locus YHR205W, strain SCH9, active compounds read low
In all, about 5,500 compounds went through this assay and about 2,000 (36%) were called active. Inconclusive results (about 18%) are left out. The list shows a part of the results.
Give bare numbers.

COc1c(Br)csc1C(=O)O/N=C(/N)c1cc(C(F)(F)F)cc(C(F)(F)F)c1 = 1.03
Cc1ccc(-n2cccc2)c(NS(=O)(=O)c2ccc(-c3ccno3)s2)c1 = 0.862
Clc1ccc(CN2CCN(c3cccc4[nH]ccc34)CC2)cc1Cl = 0.974
Brc1ccc(-c2csc(-c3ccncc3)n2)cc1 = 0.622
Cc1cc(/C(N)=N\OC(=O)C(C)(C)C)cc(/C(N)=N\OC(=O)C(C)(C)C)c1 = 0.974

State recorded normalized growth for all listed molecules.
1. CSc1sc(C(=O)Sc2ccccc2)cc1S(=O)(=O)C(C)C
2. COC(=O)c1sccc1NS(=O)(=O)c1cc(Cl)cc(Cl)c1
3. O=S(=O)(Oc1ccc(-c2csnn2)cc1)c1ccccc1Cl
4. OC(COc1ccc(F)cc1)(c1ccc(Cl)cc1)c1ccc(Cl)cc1
5. Cc1c(C)c(C)c(C(=O)c2ccc(N=Cc3cc(Cl)cc(Cl)c3O)cc2)c(C)c1C
6. Clc1ccc(SCc2ccsc2-c2ncns2)cc1
7. CC(=O)c1ccc(Cl)c(N=Cc2cc(Br)cc(Br)c2O)c1
8. Cc1ccc2nc(-c3ccc4c(c3)OCCO4)cn2c1

0.911
0.992
0.946
0.964
0.509
0.923
0.00344
0.956

====

Would you mind telling me the reported normalized growth of each entry?
Test: chemical genetic growth profiling, strain panel (AID 1159580)
Conditions: S. cerevisiae deletion strains, growth OD, locus YHR082C, strain KSP1, active compounds read low
Among all 5,500 compounds or so, about 2,000 (36%) were called active. About 18% were inconclusive and are not listed. This is one part of the list.
Numbers only.

For orientation, consider the following solved cases.
Cc1onc(-c2c(F)cccc2Cl)c1/C(N)=N\OC(=O)c1ccc(C(C)(C)C)cc1 = 1.11
Cc1cc(/C(N)=N\OC(=O)C(C)(C)C)cc(/C(N)=N\OC(=O)C(C)(C)C)c1 = 1.06
Cc1nn(-c2cccc(Cl)c2)c2oc(=O)cc(C(F)(F)F)c12 = 0.508
Cc1onc(-c2c(Cl)cccc2Cl)c1C(=O)O/N=C(/N)Cc1ccc(C(C)(C)C)cc1 = 1.16
O=C(NOC(=O)c1ccccc1)c1ccccc1 = 0.153
O=[N+]([O-])c1cccc(C2CC(c3ccccc3)=Nc3ccccc3S2)c1 (configuration not stated) = 0.997

Count: 3. Required value per item: normalized growth.
1. O=C(Nc1ccc(F)cc1F)c1cc(Cl)c(-n2cccc2)c(Cl)c1
2. CC(C)(C)c1cc(C(=O)Nc2ccc3c(c2)OCO3)n(Cc2ccc(F)cc2)n1
3. COc1c(Br)csc1C(=O)O/N=C(/N)c1cc(C(F)(F)F)cc(C(F)(F)F)c1

1. 1.05
2. 0.984
3. 1.14

====

Test: chemical genetic growth profiling, strain panel (AID 1159580);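 also: tested at 20 µM; growth read once vehicle control cultures reached saturation at 30 °C; 1 = growth at the plate median or of vehicle wells; lower values mean less growth of the strain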
Settings: S. cerevisiae deletion strains, growth OD, locus YBR023C, strain chs3, active compounds read low
The campaign covered roughly 5,500 compounds. About 2,000 (36%) were called active. Roughly 18% stayed inconclusive and do not appear here. The list shows a part of the results.
Quantity: normalized growth
Numbers only.

Worked examples, 2 molecules total:
CC(C)(C)NCC(O)c1ccc(O)c(CO)c1 (configuration not stated) = 1.01
CC(CCc1ccccc1)NCC(O)c1ccc(O)c(C(N)=O)c1 (configuration not stated) = 1.01

Give normalized growth for all molecules that follow.
1. COc1cc(C(C)=O)cc(OC)c1O
2. CC(=O)c1cc(CC=C(C)C)c(O)c(CC=C(C)C)c1

1. 1.03
2. 1

For the 3 molecules below, give their normalized growth values.
1. Cc1c(C)c2c(c(C)c1O)CCC(C)(CCCC(C)CCCC(C)CCCC(C)C)O2 (configuration not stated)
2. CC(=O)c1ccc(O)c(CC=C(C)C)c1
3. CC(Cc1cccc(C(F)(F)F)c1)NCCOC(=O)c1ccccc1 (configuration not stated)

1. 0.988
2. 0.964
3. 0.936

====

Assay: chemical genetic growth profiling, strain panel (AID 1159580);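 also: tested at 20 µM; growth read once vehicle control cultures reached saturation at 30 °C; 1 = growth at the plate median or of vehicle wells; lower values mean less growth of the strain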
Conditions: S. cerevisiae deletion strains, growth OD, locus YJL129C, strain trk1
About 2,000 (36%) of roughly 5,500 compounds were called active. About 18% were inconclusive and are not listed. Rule as the data show it: active = normalized growth mostly below about 0.91 (no sharp cut-off); inconclusive = no clear call, values can overlap the other calls; inactive = mostly above about 0.92. The list shows a part of the results.
Answer with one of the outcomes given here: active, inactive

Solved entries:
COc1ccc2cc(CCC(C)=O)ccc2c1 = inactive
CC(=O)O[C@H]1CC[C@@]2(C)C(C[C@@H](OC(C)=O)[C@@]3(C)C4=CC(=O)O[C@@H](c5ccoc5)[C@]4(C)CCC23)C1(C)C (some centres undefined) = inactive
O=C(OOC(=O)c1ccccc1)c1ccccc1 = inactive
CC12CCC(=O)C=C1CCC1C2[C@@H](O)CC2(C)C1CC[C@]2(O)C(=O)COP(=O)(O)O (some centres undefined) = inactive
NCC(=O)c1ccccc1 = inactive
CC(=O)O[C@@H]1CC2C(C)(C)[C@H](O)C=C[C@]2(C)C2CC[C@]3(C)C(=CC(=O)O[C@H]3c3ccoc3)[C@@]21C (some centres undefined) = inactive
C[n+]1ccccc1/C=N/O = inactive
CC(=O)O[C@@H]1C=C[C@@]2(C)C(C[C@@H](OC(C)=O)[C@@]3(C)C4=CC(=O)O[C@@H](c5ccoc5)[C@]4(C)CCC23)C1(C)C (some centres undefined) = inactive
CC(=O)Oc1ccc(O)cc1 = inactive
NC(=O)c1cccnc1 = inactive

We next turn to a different compound, shown below.
Hi, sorry to bother you, what did the test record for O=C(O)c1ccc(S(=O)(=O)N(Cl)Cl)cc1 ?
inactive

====

Experiment: chemical genetic growth profiling, strain panel (AID 1159580);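 also: tested at 20 µM; growth read once vehicle control cultures reached saturation at 30 °C; 1 = growth at the plate median or of vehicle wells; lower values mean less growth of the strain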
Conditions: S. cerevisiae deletion strains, growth OD, locus YGR229C, strain SMI1, active compounds read low
The whole screen tested about 5,500 compounds, of which about 2,000 (36%) were called active. About 18% were inconclusive and are not listed. Some of the results follow.
Quantity: normalized growth
Numbers only.

Recorded normalized growth, per entry:
CC(C)=CC1C(C(=O)O)C1(C)C (stereo not drawn) = 1.05
CCCN(CCC)S(=O)(=O)c1ccc(C(=O)O)cc1 = 0.982
c1ccc(CN2CCC(n3nnc4cccnc43)CC2)cc1 = 0.997
O=C(O)c1cccnc1 = 1.03
NCC(=O)c1ccccc1 = 1.03
COC(=O)c1ccc(S(=O)(=O)N2CCC(C(N)=O)CC2)n1C = 1

Each molecule below has a recorded value; state its normalized growth.
1. CCC(=O)c1ccc2c(c1)N(CCCN(C)C)c1ccccc1S2
2. CSc1ncc(C#N)c2nc(-c3ccc(N(C)C)cc3)nn12

[0.986, 1]

Required: normalized growth, one value per molecule below.
1. CC(C)CCCC(C)C1CCC2C3CC[C@H]4C[C@@H](O)CC[C@]4(C)C3CC[C@]12C (stereo partly drawn)
2. CCOC(=O)NNc1nncc2ccccc12
3. Cc1o[nH]c(=O)c1CC(N)C(=O)O (stereo not drawn)
4. COc1ccc2cc(CCC(C)=O)ccc2c1
5. CN[C@@H]1[C@H](O)[C@H](NC)[C@H]2O[C@@]3(O)C(=O)C[C@@H](C)O[C@H]3O[C@@H]2[C@H]1O
6. CS(=O)(=O)c1ccc([C@@H](O)[C@@H](CO)NC(=O)C(Cl)Cl)cc1
7. CCCCCCc1cc2c(C)cc(=O)oc2cc1O
8. C[n+]1ccccc1/C=N/O

1
0.984
0.995
0.919
1.02
0.979
0.976
1.02

Value sought for every listed molecule: normalized growth.
1. CC(=O)N[C@@H](Cc1c[nH]c2ccccc12)C(N)=O
2. Cc1ccc2c(c1)C1(C)CCCC(C)(C(=O)O)C1CC2 (stereo not drawn)
3. OC(c1ccccc1)(c1ccccc1)c1ccncc1

[0.973, 0.979, 0.997]

Working through the 2 molecules below one at a time, give normalized growth for each.
1. O=C1c2ccccc2C(=O)N1CN(CCSc1ccccc1)CN1C(=O)c2ccccc2C1=O
2. O=C1NC(O)=NC1(c1ccccc1)c1ccccc1

[1, 0.998]

Count: 6. Required value per item: normalized growth.
1. CC(=O)O[C@H]1CCC2(C)C3=C(CCC2C1(C)C)[C@@]1(C)CC[C@@H](C(C)CCC=C(C)C)[C@]1(C)CC3 (stereo partly drawn)
2. NC(=O)NC(=O)Cc1ccccc1
3. CCN1CCN(C(=O)NC(C(=O)N[C@@H]2C(=O)N3[C@@H]2SC(C)(C)[C@@H]3C(=O)O)c2ccccc2)C(=O)C1=O (stereo partly drawn)
4. C=C/C(C)=C/[C@@]1(C)SC(=O)C(C)=C1O
5. Cc1c(C)c2c(c(C)c1O)CCC(C)(CCCC(C)CCCC(C)CCCC(C)C)O2 (stereo not drawn)
6. Cc1cccc(C)c1N=C1SCCS1

0.963
1.13
1
1.01
1.02
0.997

// batch mode: one normalized growth value per listed entry
1. CC(C)c1ccc2c(c1)CCC1[C@](C)(CN)CCC[C@]21C (stereo partly drawn)
2. O=C(O)CCCNCc1cccc2ccccc12
3. O=C(O)C1=CCCNC1
4. CCOC(=O)CSc1nc2cc(C(F)(F)F)cnc2n1C
5. NNC(=S)Nc1ccc2c(c1)OCCO2
6. FC(F)(F)c1cc(-c2noc(C3CCc4ccccc4O3)n2)cc(C(F)(F)F)c1 (stereo not drawn)
7. O=C(O)[C@@H]1C[C@@H](C(=O)O)N1
8. Cc1cc(=O)[nH]c(=S)[nH]1

0.0707
1
1.02
1.01
0.986
1
0.986
1.01

For every listed record, write down its normalized growth.
1. COc1ccc([C@@H]2CC(=O)c3c(O)cc(O[C@@H]4O[C@H](CO[C@H]5O[C@@H](C)[C@H](O)[C@@H](O)[C@H]5O)[C@@H](O)[C@H](O)[C@H]4O)cc3O2)cc1O
2. NC(=O)c1ccccc1
3. CCC(C)C(=O)OC1[C@@H]2CC3=C4CC(=O)O[C@@H](c5ccoc5)[C@]4(C)CCC3[C@@](C)(C2=O)[C@@H](CC(=O)OC)C1(C)C (stereo partly drawn)
4. CCCOc1ccc2nc(NC(=O)OC)[nH]c2c1
5. N=C(N)N
6. NCC(N)C(=O)c1ccccc1 (stereo not drawn)
7. CCCc1cc(=O)[nH]c(=S)[nH]1
8. CCCc1c(OCCCCc2nn[nH]n2)ccc(C(C)=O)c1O

1
1.04
0.982
0.983
1.04
1.02
1.02
1.03
